Reference source for all entries: patent US20200392228A1

TESTED TARGET: T1, mouse MAdCAM expressed on cells (mouse, UniProt Q61826 22-405)
T1 construct: whole, on cells
T1 sequence (looked up): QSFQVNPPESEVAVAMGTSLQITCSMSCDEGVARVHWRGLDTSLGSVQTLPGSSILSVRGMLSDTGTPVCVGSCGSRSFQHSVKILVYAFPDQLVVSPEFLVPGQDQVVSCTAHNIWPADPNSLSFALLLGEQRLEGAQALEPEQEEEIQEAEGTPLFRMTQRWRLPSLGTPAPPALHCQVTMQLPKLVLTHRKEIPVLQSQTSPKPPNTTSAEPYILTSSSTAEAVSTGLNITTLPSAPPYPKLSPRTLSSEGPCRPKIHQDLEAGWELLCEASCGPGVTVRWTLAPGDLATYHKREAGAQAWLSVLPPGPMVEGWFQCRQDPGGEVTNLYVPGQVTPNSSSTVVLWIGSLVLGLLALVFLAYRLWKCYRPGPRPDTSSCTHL
ASSAY PROTOCOL: cell binding
REPORTED METRIC: binding result

>>> measured_result("MAdCAM antibody Clone ID 65 of Table 6 (scFv) (scFv) scFv: QVQLVQSGAEVKKPGASVKVSCKASGYTFTRHWIHWVRQAPGQGLEWMGWINVKTGGAGYAQKFQGRVTMTRDTSTSTVYMELSSLRSEDTAVYYCARESSGWYGTDVWGQGTTVTVSSGGGGSGGGGSGGGGSGGGGSDIQMTQSPSSLSASVGDRATITCRASQSISNYLAWYQQKPGKAPKLLIYAASSLQSGVPSRFSGSGSGTDFTLTISSLQPEDFATYYCQQSNSFPLTFGGGTKVEIK")
"binds"
>>> measured_result("MAdCAM antibody Clone ID 15 of Table 6 (scFv) (scFv) scFv: QVQLVQSGAEVKKPGSSVKVSCKASGYTFTNYYMHWVRQAPGQGLEWMGGIIPIVDRVKYAQKFQGRVTITADESTSTAYMELSSLRSEDTAVYYCAKGRYTVNYYYGMDVWGQGTTVTVSSGGGGSGGGGSGGGGSGGGGSDIQMTQSPSSLSASVGDRVTITCQANQDISNYLNWYQQKPGKAPKLLIYRASKLEAGVPSRFSGSGSGTDFTLTISSLQPEDFATYYCQQSSEIPYSFGQGTKLEIK")
"no binding"
>>> measured_result("MAdCAM antibody Clone ID 58 of Table 6 (scFv) (scFv) scFv: QVQLVQSGAEVKKPGASVKVSCKASGYTFTGYYMHWVRQAPGQGLEWMGIINPSGGNTKYAQKFQGRVTMTRDTSTSTVYMELSSLRSEDTAVYYCTTADYYYYMDVWGKGTTVTVSSGGGGSGGGGSGGGGSGGGGSDIQMTQSPSSLSASVGDRVTITCRASQGISNYLAWYQQKPGKAPKLLIYAASSLQSGVPSRFSGSGSGTDFTLTISSLQPEDFATYYCQQYYSNADFGQGTKVEIK")
"no binding"
